readout: IC50

IC50 on HDAC2 (Homo sapiens) for O=C(NO)c1cnc(N2CC3C(C2)C3NCc2ccc3cc(F)ccc3n2)nc1 (stereo not shown) is 12 nM

---

Experiment: Single dose pharmacokinetics of VRx-3996 in patients, serum, cycle 1 day 1
Format: in vivo, humans
Conditions: human, po, Treatment C = 10 mg VRx-3996 p.o. and 900 mg Valganciclovir p.o., single dose, N=6, read-out: Cmax, geometric mean
Description: Patients enrolled in study were administered oral nanatinostat and valganciclovir at predefined doses. […] 8.1 software.
readout: Cmax (ng/mL)
Give the number; ng/mL is assumed, so skip it.

Reported Cmax of O=C(NO)c1cnc(N2CC3C(C2)C3NCc2ccc3cc(F)ccc3n2)nc1 (stereo not shown) : 78.9

---

Assay: Single dose pharmacokinetics of VRx-3996 in patients, serum, cycle 1 day 1
Type: in vivo, humans
Details: human, po, humans, oral nanatinostat with valganciclovir, read-out: T1/2 (converted)
readout: half-life

Reported half-life of O=C(NO)c1cnc(N2CC3C(C2)C3NCc2ccc3cc(F)ccc3n2)nc1 (stereo not shown) : ~2 h

---

Assay: Single dose pharmacokinetics of VRx-3996 in patients, serum, cycle 1 day 1
Assay type: in vivo, humans
Conditions: human, po, Treatment B = 10 mg VRx-3996 p.o. and 450 mg Valganciclovir p.o., single dose, N=9, read-out: Tmax, median (range)
readout: Tmax (h)
Give the number; h is assumed, so skip it.

Reported Tmax of O=C(NO)c1cnc(N2CC3C(C2)C3NCc2ccc3cc(F)ccc3n2)nc1 (stereo not shown) : 2

---

Assay: Single dose pharmacokinetics of VRx-3996 in patients, serum, cycle 1 day 1
Type: in vivo, humans
Settings: human, po, Treatment B = 10 mg VRx-3996 p.o. and 450 mg Valganciclovir p.o., single dose, N=9, read-out: Cmax, geometric mean
readout: Cmax
Write the quantity with the unit trailing the number.

Reported Cmax of O=C(NO)c1cnc(N2CC3C(C2)C3NCc2ccc3cc(F)ccc3n2)nc1 (stereo not shown) [Nstat] : 62.6 ng/mL

---

Test: Single dose pharmacokinetics of VRx-3996 in patients, serum, cycle 1 day 1
Assay type: in vivo, humans
Conditions: human, po, Treatment B = 10 mg VRx-3996 p.o. and 450 mg Valganciclovir p.o., single dose, N=1, read-out: AUC, geometric mean
Experimental: Patients enrolled in study were administered oral nanatinostat and valganciclovir at predefined doses. […] 8.1 software.
readout: AUC (ng·h/mL)
Give the number; ng·h/mL is assumed, so skip it.

Reported AUC of O=C(NO)c1cnc(N2CC3C(C2)C3NCc2ccc3cc(F)ccc3n2)nc1 (stereo not shown) : 317

---

readout: IC50 (nM)
Give the number; nM is assumed, so skip it.

IC50 on HDAC1 (Homo sapiens, UniProt Q13547) for O=C(NO)c1cnc(N2CC3C(C2)C3NCc2ccc3cc(F)ccc3n2)nc1 (stereo not shown) is 3.6
